Below are pIC50 values recorded for DPP-IV, obtained from porcine kidneys (Sus scrofa).
// field semantics: pIC50 = negative decimal log of concentration (mol/L)

Value lookup for pIC50; key = `CCN(CC)C(=O)n1cnc(S(=O)(=O)Cc2ccccc2)n1` 6.11

And for CN(C)C(=O)n1cnc(S[C@@H]2C[C@@H]3CC[C@H]2C3)n1 (relative stereo) ? 5.76

Another compound to look at: `Cc1ccc(S(=O)(=O)c2ccn(C(=O)N(C)C)n2)cc1` 5.37

// query: `CN(C)C(=O)n1cnc(S(=O)(=O)Cc2ccc(F)cc2)n1` 6.18

Now the same for `CN(C)C(=O)n1cnc(Sc2cccc(Br)n2)n1` 5.32

* * *

# Measured Target: DPP-IV, obtained from porcine kidneys (Sus scrofa)
# Sequence (P22411 whole entry): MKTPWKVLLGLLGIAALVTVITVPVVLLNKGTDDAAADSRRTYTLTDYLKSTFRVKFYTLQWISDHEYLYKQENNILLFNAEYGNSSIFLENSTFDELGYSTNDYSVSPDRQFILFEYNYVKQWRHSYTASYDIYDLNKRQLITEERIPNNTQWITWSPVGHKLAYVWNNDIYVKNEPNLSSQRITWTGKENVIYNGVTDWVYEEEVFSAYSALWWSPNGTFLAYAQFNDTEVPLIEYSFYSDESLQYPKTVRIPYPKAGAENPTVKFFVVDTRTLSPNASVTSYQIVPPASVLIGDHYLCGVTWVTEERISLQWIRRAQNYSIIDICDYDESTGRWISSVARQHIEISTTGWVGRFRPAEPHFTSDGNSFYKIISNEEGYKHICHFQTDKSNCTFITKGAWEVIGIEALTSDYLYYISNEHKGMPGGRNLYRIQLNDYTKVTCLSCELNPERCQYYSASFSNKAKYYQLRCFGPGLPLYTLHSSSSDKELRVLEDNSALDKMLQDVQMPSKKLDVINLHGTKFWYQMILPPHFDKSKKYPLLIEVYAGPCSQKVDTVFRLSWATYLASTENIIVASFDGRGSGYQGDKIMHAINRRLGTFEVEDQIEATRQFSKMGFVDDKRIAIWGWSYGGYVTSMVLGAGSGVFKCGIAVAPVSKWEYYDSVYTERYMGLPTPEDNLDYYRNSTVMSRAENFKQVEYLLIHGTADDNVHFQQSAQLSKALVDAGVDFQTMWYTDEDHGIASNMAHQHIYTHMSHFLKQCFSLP
pIC50: −log10 of the molar value.
Output True for pIC50 not less than 7; output False otherwise.

pIC50 >= 7 for `CN(C)C(=O)n1cnc(SC(c2ccc(F)cc2)c2ccc(F)cc2)n1` ? False

Also CN(C(=O)n1cnc(S(=O)(=O)[C@@H]2C[C@@H]3CC[C@H]2C3)n1)C(C)(C)C (relative stereo) , if possible. False

Param item: `Cc1nn(-c2ccccc2)c(C)c1S(=O)(=O)c1ncn(C(=O)N(C)C)n1` True

Here is the next molecule: `CCN(CC)C(=O)n1cnc(S(=O)(=O)c2c(C)cc(C)cc2C)n1` False

What do you get for CC(C)N(C)C(=O)n1cnc(S(=O)(=O)[C@@H]2C[C@@H]3CC[C@H]2C3)n1 (relative stereo) ? True

Also check `CN(C)C(=O)n1cnc(S(=O)(=O)N2CCc3ccccc32)n1` False

* * *

As an illustration, consider measured log10 of IC50 for molecules on DPP-IV, obtained from porcine kidneys (Sus scrofa).
Annotation: log10 of IC50, nM basis.

Entry `Cc1cc(C)c(S(=O)(=O)c2ncn(C(=O)N(C)c3ccccc3)n2)c(C)c1` has what log10 of IC50? 3.18

And `CN(C)C(=O)n1cnc(S(=O)(=O)CC(C)(C)C)n1` ? 2.84

`CN(C)C(=O)n1cnc(SCc2ccccc2)n1` , same question. 3.67

Next entry: `Cc1cc(C)c(Sc2ncn(C(=O)N(C)C)n2)c(C)c1` 3.57

Do the same for `Cc1cccc(OCC(F)(F)F)c1S(=O)(=O)c1ncn(C(=O)N(C)C)n1` please 0.63

* * *

# Measured Target: DPP-IV, obtained from porcine kidneys (Sus scrofa)
Observable: log10 of IC50 (log10 of the value in nM)
Use the decimal logarithm of IC50 (nM).

Could you share which log10 of IC50 value was measured for O=C(N1CCSC1)n1cnc(S(=O)(=O)[C@@H]2C[C@@H]3CC[C@H]2C3)n1 (relative stereo) [Example 25] ? 1.76

Now the same for CCCN(C)C(=O)n1cnc(S(=O)(=O)[C@@H]2C[C@@H]3CC[C@H]2C3)n1 (relative stereo) [Example 28] 1.77

Next compound: Cc1cc(C)c([S+]([O-])c2ncn(C(=O)N(C)C)n2)c(C)c1 (stereo not drawn) [Example 39] 1.36

Now this one: O=C(N1CCCC1)n1cnc(S(=O)(=O)[C@@H]2C[C@@H]3CC[C@H]2C3)n1 (relative stereo) [Example 26] 2.39

Then CN(C)C(=O)n1cnc(S(=O)(=O)N2C3CCCC2CC3)n1 [Example 55] ? 1.98

Then what about the compound CN(C)C(=O)n1cnc(S(=O)(=O)c2cccc(Br)n2)n1 [Example 53] ? 2.55

Same read-out for CN(C)C(=O)n1cnc(S(=O)(=O)Cc2ccccc2)n1 [Example 2] ? 3.14

Cc1noc(C)c1Sc1ncn(C(=O)N(C)C)n1 [Example 46] , same question. 3.25

Input CN(C)C(=O)n1cnc(SC(c2ccccc2)c2ccccc2)n1 [Example 6] 3.54
